# Measured Target: T1, HLA-B07.02 (human)
# T1 construct: Purified class I MHC
# Measurement Notes: competition with radiolabeled reference peptide, purified MHC I
# Method: Peptides were incubated at varying concentrations with these complexes for 2 days, and the amount of remaining radiolabeled peptide bound to […] was measured using size exclusion gel-filtration.
Quantity Name: IC50 (nM)
Give bare numbers, in nM.

Below, 7 binders whose answers are already recorded.
# Binder, IC50 / nM
rows = [
    ("KSRQNHLQL (also called SMAP1(-1))", 78),
    ("KLMLLRLNL (also called SEC31A(-1))", 133),
    ("HPRPAPASA (also called TP53, SHST)", 11),
    ("LPRKPTRAAT (also called TP53, QPSL)", 3),
    ("KPTRAATVSV (also called TP53, QPSL)", 8),
    ("LPSQRRNHWM (also called TP53, CSES)", 10),
    ("ALKKLRSPL (also called SMAP1(-1))", 223),
]

Attention now turns to another entry.
// query What IC50 value was documented for this binder, RVQNQGHLL (also called UBR5(-1)) ?
// result 826
